Form field: IC50 (one value per entry).
- target-under-test: UniProt:P06239
- Sequence (P06239 whole entry): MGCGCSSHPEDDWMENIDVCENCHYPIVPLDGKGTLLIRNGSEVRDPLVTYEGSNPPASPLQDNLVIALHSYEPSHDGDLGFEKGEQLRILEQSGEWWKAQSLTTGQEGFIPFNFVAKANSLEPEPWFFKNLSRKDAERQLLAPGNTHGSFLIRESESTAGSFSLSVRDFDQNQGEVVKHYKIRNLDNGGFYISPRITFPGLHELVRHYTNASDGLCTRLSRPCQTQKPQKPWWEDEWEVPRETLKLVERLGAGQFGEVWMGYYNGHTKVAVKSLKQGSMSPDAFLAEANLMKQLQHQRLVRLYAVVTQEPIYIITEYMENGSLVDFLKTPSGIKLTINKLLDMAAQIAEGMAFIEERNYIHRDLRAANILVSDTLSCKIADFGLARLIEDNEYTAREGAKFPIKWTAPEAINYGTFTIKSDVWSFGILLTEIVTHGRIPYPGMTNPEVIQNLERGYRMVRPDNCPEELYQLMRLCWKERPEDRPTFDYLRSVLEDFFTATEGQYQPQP
- test: Inhibition of a panel of kinases, in vitro HotSpot kinase assay: LCK
- Assay type: biochemical
- experimental-context: D-compounds panel data; 1 μM ATP; read-out: IC50 LCK

Give its IC50 value. Item: C[C@@H]1[C@H](NC(=O)c2ccc(C3CC3)cc2)CCCN1c1cnc(C(N)=O)c(NCC2=CCN(C)CC2)n1
> 10000 nM

Cc1cc(Nc2nc(N3C[C@@H](NC(=O)c4ccc(C5CC5)cc4F)CC[C@H]3C)cnc2C(N)=O)sn1 , same question.
100 to 1000 nM

Also C/C=C/c1ccc(C(=O)N[C@@H]2CCCN(c3cnc(C(N)=O)c(Nc4cc(C)ns4)c3)[C@@H]2C)c(F)c1 ?
10 to 100 nM

Now try C[C@@H]1[C@H](NC(=O)N(C)C)CCCN1c1cnc(C(N)=O)c(Nc2cc(CN3CCOCC3)ns2)n1 .
100 to 1000 nM

Another compound to check: C[C@@H]1[C@H](NC(=O)c2ccc(C3CC3)cc2)CCCN1c1cnc(C(N)=O)c(Nc2ccc(N3CCC(F)(F)CC3)cc2)n1
> 10000 nM

Then C[C@H]1CC[C@H](NC(=O)c2ccc(C3CC3)cc2)CN1c1cnc(C(N)=O)c(Nc2cnn(C)c2)n1 ?
1000 to 10000 nM

Also Cc1nc2cc(C(=O)N[C@@H]3CCCN(c4cnc(C(N)=O)c(Nc5cnn(C)c5)n4)[C@@H]3C)ccc2s1 , if possible.
100 to 1000 nM

Also C[C@@H]1[C@H](NC(=O)c2ccc(C3CC3)cc2Cl)CCCN1c1cnc(C(N)=O)c(Nc2ccc(N3CCN(C)CC3)cc2)n1 , if possible.
10 to 100 nM

Hey, just so you know, these numbers are from patent US20210070748A1.
